Hello, the source for this data is ChEMBL document CHEMBL5058577, in case you need it.

# Test system: Fibroblast
# PROTOCOL_DETAILS: Multiplex assay against human fibroblast
# Format: toxicity, cell-based
# CONDITIONS: 48 h, 1 µM, compound concentration 1 uM, replicate 1
Quick list: Population Hoechst High Intensity Objects (%) per entry.
READOUT: Population Hoechst High Intensity Objects (%)

COMPOUND	ENDPOINT_VALUE
Cc1ccccc1C(=O)Nc1ccc(C(=O)N2CCCC(N(C)C)c3ccccc32)cc1.Cl (centres undefined)	3
CCCn1c(=O)c2[nH]c(C3CCCC3)nc2n(CCC)c1=O	2
CCCN1CCC[C@@H]2Cc3n[nH]cc3C[C@H]21.Cl [QUINPIROLE HYDROCHLORIDE]	3
O=C(O)c1cc2ccccc2c(Cc2c(O)c(C(=O)O)cc3ccccc23)c1O [PAMOIC ACID]	4
CSc1ccccc1N1CCN(CCCCCC(=O)NC2CCCc3ccccc32)CC1.Cl (centres undefined)	6
CN(C)CCCc1cc(C(=O)Nc2ccc(-c3ccncc3)cc2)ccc1O.Cl.Cl	0
C[C@@H]1C[C@H]2[C@@H]3CCC4=CC(=O)C=C[C@]4(C)[C@@]3(F)[C@@H](O)C[C@]2(C)[C@@]1(O)C(=O)CO [DEXAMETHASONE]	6
Cc1ccc(C(C)(O)c2nc3ccccc3s2)c(C)c1 (centres undefined)	4
N[C@@]1(C(=O)O)CO[C@H]2[C@H](C(=O)O)[C@H]21 [LY-379268]	3
O=C(O)Cc1ccccc1Nc1c(Cl)cccc1Cl [DICLOFENAC]	3
CN1CCN(c2nc3cc(C(F)(F)F)ccc3n3cccc23)CC1.O=C(O)/C=C\C(=O)O.O=C(O)/C=C\C(=O)O	2
CN(C)c1ccnc2sc3c(=O)n(N4CCCCCC4)cnc3c12	2
CN1CCN2c3ncccc3Cc3ccccc3C2C1 (centres undefined) [MIRTAZAPINE]	7
O=C(NCCO)c1cccc(-c2cc(Nc3ccc(OC(F)(F)F)cc3)ncn2)c1	1
Cl.Clc1ccc2nsnc2c1NC1=NCCN1 [TIZANIDINE HYDROCHLORIDE]	2
CCOc1c2c(c(OCC)c3ncccc13)CN(c1ccc(CS(=O)(=O)NC(=O)Cc3ccccc3OC)cc1C)C2=O	3
COc1ccc2c(c1)C(C(=O)N(Cc1ccc(N(C)C)cc1)c1ccc(C(C)C)cc1)CCC2.Cl (centres undefined)	1
Cc1ccc(/C(=C\CN2CCCC2)c2ccccn2)cc1 [TRIPROLIDINE]	3
c1cc(OCCCN2CCCCC2)ccc1CN1CCCCC1 [JNJ-5207852]	2

====

# Test system: HEK-293T
# PROTOCOL_DETAILS: Multiplex assay against HEK293T
# Assay type: toxicity, cell-based
# CONDITIONS: human, 48 h, 10 µM, compound concentration 10 uM, replicate 2

COMPOUND	Population Pyknosed Nuclei (%)
CC[C@H]1OC(=O)[C@H](C)[C@@H](O[C@H]2C[C@@](C)(OC)[C@@H](O)[C@H](C)O2)[C@H](C)[C@@H](O[C@@H]2O[C@H](C)C[C@H](N(C)C)[C@H]2O)[C@@]2(C)CC(C)=C(O2)[C@H](C)[C@@H](O)[C@]1(C)O	11
O=C(NCCO)c1cccc(-c2cc(Nc3ccc(OC(F)(F)F)cc3)ncn2)c1	11
CNC[C@H](O)c1ccc(O)c(O)c1 [EPINEPHRINE]	14
c1cc(OCCCN2CCCCC2)ccc1CN1CCCCC1	10
N#Cc1c(N)nc(SCc2csc(-c3ccc(Cl)cc3)n2)c(C#N)c1-c1ccc(OCCO)cc1	14
CCNC1(C(N)=O)CCN(c2ncnc3c2nc(-c2ccccc2Cl)n3-c2ccc(Cl)cc2)CC1	12
Cc1ccc(C(C)(O)c2nc3ccccc3s2)c(C)c1 (stereo not drawn)	5
CC(C)(C)c1ccc(S(=O)(=O)Nc2ccc(Cl)cc2C(=O)c2cc[n+]([O-])cc2)cc1	7
